- method-summary: qHTS drug screen for cell cycle checkpoint inhibitors in PARPi-resistant BRCA-mutant ovarian cancer cell lines. (AID 1963452)
- recorded-conditions: PEO1/OlaR viability, CellTiter-Glo luminescence, 96 h; measured here: PEO1 parental Z-AUC; stronger effect = lower value
quantity-name: Z-AUC

> print(dat)
                                    compound  quantity.name  meas.value
 1  C[C@H](NC(=O)c1sccc1OCc1ccc(Cl)cc1)c1ccccc1          Z-AUC      -0.143
 2  CN[C@@H](C)C(=O)N[C@H]1CN(C(=O)CC(C)C)CC[C@H]2CC[C@@H](C(=O)NC(c3ccccc3)c3ccccc3)N2C1=O          Z-AUC       0.371
 3         O=C(NCc1ccccc1)c1csc(Nc2ccncn2)n1          Z-AUC       0.117
 4  CC(C)n1nc(-c2ccc3oc(N)nc3c2)c2c(N)ncnc21          Z-AUC       -1.21
 5  NC(=O)[C@@H](CCC(F)(F)F)N(Cc1ccc(-c2ncon2)cc1F)S(=O)(=O)c1ccc(Cl)cc1          Z-AUC       0.342
 6   NS(=O)(=O)c1cccc2c1C(=O)c1cccc(O)c1C2=O          Z-AUC       -1.19
 7  Cc1ccn(-c2ccc(-c3ncco3)cc2)c(=O)c1-c1ccc2nc(N)ncc2c1          Z-AUC       0.788
 8  COc1ccc2c(Oc3ccc(NC(=O)c4c(C)n(CC(C)(C)O)n(-c5ccccc5)c4=O)nc3)ccnc2c1          Z-AUC       0.436
 9  COc1ncc(-c2ccc3nccc(-c4ccnnc4)c3c2)cc1NS(=O)(=O)c1ccc(F)cc1F          Z-AUC       -2.06
10  CC(C)[C@H](CO)Nc1nc(Nc2ccc(C(=O)O)c(Cl)c2)c2ncn(C(C)C)c2n1          Z-AUC       0.263
11             Oc1ccc(C2=Cc3ccc(O)cc3OC2)cc1          Z-AUC      -0.782
12  O=c1cc(-c2cccc3c2Sc2ccccc2S3)oc(N2CCOCC2)c1          Z-AUC        1.03
13  Cc1ccccc1C(C(=O)NC1CCCCC1)N(C(=O)Cn1ccnc1C)c1cccc(F)c1 (stereo not given)          Z-AUC       0.941
14  CC(C)C[C@H](CC(=O)O)C(=O)N[C@@H](Cc1c[nH]c2ccccc12)C(=O)N[C@@H](C)c1ccccc1          Z-AUC        1.54
15  COc1cc2nc(-c3ccc(N4CCN(C)CC4)cc3)nc(NCCN3CCOCC3)c2cc1OC          Z-AUC    -0.00961
16  CC(C(=O)O)c1ccc(-c2ccccc2)c(F)c1 (stereo not given)          Z-AUC       0.939
17  CC1=C(/C=C/C(C)=C/C=C/C(C)=C/C(=O)Nc2ccc(O)cc2)C(C)(C)CCC1          Z-AUC       0.437
18  CNC1CCC(N(Cc2cccc(-c3ccncc3)c2)C(=O)c2sc3c(F)ccc(F)c3c2Cl)CC1 (stereo not given)          Z-AUC      -0.582
19  CNC(=O)c1ccc2cc(C3(O)CCn4cncc43)ccc2c1 (stereo not given)          Z-AUC      -0.347
20                           Nc1ncnc2ccccc12          Z-AUC       0.844
21               COc1ccc2cccc(CCNC(C)=O)c2c1          Z-AUC      -0.478
22  c1ccc2c(-c3cnn4cc(-c5ccc(N6CCNCC6)cc5)cnc34)ccnc2c1          Z-AUC      -0.568
23  CC(C)(C(=O)NCC(F)(F)C(F)(F)F)C(=O)N[C@@H]1C(=O)Nc2ccccc2-c2ccccc21          Z-AUC       0.706
24  Cc1ccc(Nc2cc(-c3cccc(N4C(=O)c5ccccc5C4=O)c3)ncn2)cc1NS(C)(=O)=O          Z-AUC      -0.644
25  COc1cc2ncnc(-n3nc(-c4ccccn4)nc3N)c2cc1OC          Z-AUC       0.627
26  Clc1ccc(C(c2ccc(Cl)cc2)n2cc[n+](CC(OCc3ccc(Cl)cc3Cl)c3ccc(Cl)cc3Cl)c2)cc1 (stereo not given)          Z-AUC      -0.468
27  CC(C)(Cc1ccc2ccccc2c1)NC[C@@H](O)COc1cccc(Cl)c1C#N          Z-AUC        1.04
28  CC(C)n1cnc2c(NCCCCCCNC(=O)OC(C)(C)C)nc(NCCO)nc21          Z-AUC       0.841
29  C=C1C(=O)[C@@]23C(CC[C@@H]1[C@H]2O)[C@@]12CO[C@]3(O)[C@@H](O)[C@@H]1C(C)(C)CC[C@@H]2O (stereo not given in full)          Z-AUC       -1.05
30  COc1cc2ncnc(Nc3ccc(F)c(Cl)c3)c2cc1OCCCN1CCOCC1          Z-AUC       0.863
31  C[C@]12CC[C@@H]3c4ccc(O)cc4C[C@@H](CCCCCCCCCS(=O)CCCC(F)(F)C(F)(F)F)[C@H]3[C@H]1CC[C@H]2O (stereo not given in full)          Z-AUC      -0.171
32  CC(C)(C)OC(=O)N[C@H]1CCCCCC=C[C@@H]2C[C@@]2(C(=O)NS(=O)(=O)C2CC2)NC(=O)[C@@H]2C[C@@H](OC(=O)N3Cc4cccc(F)c4C3)CN2C1=O          Z-AUC       0.658
33  Clc1cc(Cl)cc(CNc2ncncc2-c2ccc3c(c2)OCO3)c1          Z-AUC       -0.24
34  CN1[C@@H]2CCC[C@@H]1CC(NC(=O)c1nn(C)c3ccccc13)C2 (stereo not given in full)          Z-AUC      -0.292
35  Nc1ncnc2c1nc(Cl)n2[C@@H]1O[C@H](CO)[C@@H](O)[C@@H]1O          Z-AUC      -0.225
36  O=C(O)C(O)Cc1ccc(O)c(O)c1 (stereo not given)          Z-AUC        1.05
37    O=C1C(Cl)=C(NCCN2CCOCC2)C(=O)c2ncccc21          Z-AUC       -1.16
38      O=c1cc(-c2ccc(O)cc2)oc2cc(O)cc(O)c12          Z-AUC       0.649
39  COc1cc(N2CCC(N3CCN(C)CC3)CC2)ccc1Nc1ncc(Cl)c(Nc2ccccc2S(=O)(=O)C(C)C)n1          Z-AUC      -0.594
40  COc1cccc2c1CCCC2CCCN1CCN(C2CCCCC2)CC1 (stereo not given)          Z-AUC       0.889

These measurements were taken from PubChem BioAssay (NCATS).
